Tested on: HT-29
Assay: NCI tumour cell line growth inhibition, 48 h
Active and inactive are the calls of the source. Rule as the data show it: active = GI50 up to about 1.1 µM and inactive = higher.
Returns: one label drawn from active, inactive

molecule	labelClass
CC(=O)/C(=C\c1ccco1)C(=O)Nc1ccccc1	inactive

Q: Recorded call for O=C1/C(=C/c2ccc(Br)s2)NC(=S)N1CN1CCOCC1 ?
Result: inactive

---

Tested on: UACC-62
Assay: NCI tumour cell line growth inhibition, 48 h
Activity calls are given as the source filed them. No stated cut-off is given here; in the data, active = GI50 up to about 1.1 µM and inactive = higher.
Known GI50 of a selection of compounds

Worked cases, GI50 given:
compound	target	GI50
CCCc1c(OC)c(=O)c2c(O)cc(OC)c3c4c(OC)cc(O)c5c(=O)c(OC)c(CCC)c(c1c23)c54	UACC-62	10.3 µM (inactive)
O=c1oc2c3ccc4ccccc4c3n(CCCN3CCCCC3)c2c2ccccc12	UACC-62	> 100 µM (inactive)
C=C1CN2CCc3c([nH]c4ccccc34)C2CC1CC(=O)N(C)C (stereo not given)	UACC-62	> 309 µM (inactive)
COc1ccccc1N1CCN(CCCNC(=O)c2cc(Cl)c(N)c(Cl)c2)CC1	UACC-62	35 µM (inactive)
Cc1ccc(S(=O)(=O)NC2C(=O)c3ccccc3C(=O)C2n2cnc3ccccc32)cc1 (stereo not given)	UACC-62	28.3 µM (inactive)
Cc1cc2c(cc1Cl)SC(NNc1ccc([N+](=O)[O-])cc1)=NS2(=O)=O	UACC-62	> 10 µM (inactive)

Q: Which GI50 value belongs to CC(=O)C1=CC=C/C1=N\Nc1ccccc1 ?
Result: 6.97 µM (inactive)

Q: Now try [O-][S+](Cc1ccccc1)c1ccccc1Cn1cccc1 (stereo not given) .
Result: 71.6 µM (inactive)

Q: Now try N#CC(=C1CCN(CCCC(=O)c2ccc(F)cc2)CC1)c1ccccc1 .
Result: > 100 µM (inactive)

Q: Now try COc1ccc(N2C(=O)CS(=O)(=O)C2c2cccc(Oc3ccccc3)c2)cc1 (stereo not given) .
Result: 2.21 µM (inactive)
